Molecular target: UniProt O43614
Sequence (O43614 whole entry): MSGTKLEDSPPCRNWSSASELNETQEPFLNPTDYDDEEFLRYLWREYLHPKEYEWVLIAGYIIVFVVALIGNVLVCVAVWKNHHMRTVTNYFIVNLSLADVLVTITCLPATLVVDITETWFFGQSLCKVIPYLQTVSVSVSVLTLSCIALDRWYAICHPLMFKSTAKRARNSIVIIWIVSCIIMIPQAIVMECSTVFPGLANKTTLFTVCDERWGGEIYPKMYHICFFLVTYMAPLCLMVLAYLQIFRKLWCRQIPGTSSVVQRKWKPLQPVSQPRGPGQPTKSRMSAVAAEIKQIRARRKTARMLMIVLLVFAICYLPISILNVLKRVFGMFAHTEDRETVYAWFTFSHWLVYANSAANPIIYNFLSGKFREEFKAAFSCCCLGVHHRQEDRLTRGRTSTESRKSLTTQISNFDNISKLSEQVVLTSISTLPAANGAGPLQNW
Experiment: Antagonist activity at human OX2 receptor expressed in CHOK1 cells assessed as inhibition of orexin-A-induced calcium mobilization preincubated for 15 mins followed by orexin-A addition and measured by FURA 2-AM dye based fluorescence assay
TEST READOUT: Ki (nM)
# number only, unit nM dropped from output

> print(dat)
                      smiles.representation  value.unit  numeric.value
1  CN(C(=O)/C=C/c1ccoc1)[C@H]1CC[C@@]2(O)[C@H]3Cc4ccccc4[C@@]2(CCN3S(=O)(=O)c2ccccc2)C1          nM            173

Kindly review the next compound as well.
Please report the recorded Ki for "CN(C(=O)/C=C/c1ccoc1)[C@H]1CC[C@@]2(O)[C@H]3CC4=C(CCCC4)[C@@]2(CCN3S(=O)(=O)c2ccccc2)C1" .
91.9

* * *

Biological target: Orexin/Hypocretin receptor type 1 (Homo sapiens)
Sequence (O43613 whole entry): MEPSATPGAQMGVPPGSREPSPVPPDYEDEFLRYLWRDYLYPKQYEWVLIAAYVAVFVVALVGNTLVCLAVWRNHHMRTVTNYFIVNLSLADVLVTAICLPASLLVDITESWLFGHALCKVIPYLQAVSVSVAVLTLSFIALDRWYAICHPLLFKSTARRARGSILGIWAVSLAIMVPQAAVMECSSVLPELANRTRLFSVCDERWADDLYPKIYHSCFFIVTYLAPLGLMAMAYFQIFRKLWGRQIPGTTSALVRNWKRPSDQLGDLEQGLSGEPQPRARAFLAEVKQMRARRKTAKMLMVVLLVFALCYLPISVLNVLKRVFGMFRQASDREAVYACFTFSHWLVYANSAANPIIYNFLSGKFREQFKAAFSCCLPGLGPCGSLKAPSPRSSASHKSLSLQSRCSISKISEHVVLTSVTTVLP
Test: Antagonist activity at human OX1 receptor expressed in CHOK1 cells assessed as inhibition of orexin-A-induced calcium mobilization preincubated for 15 mins followed by orexin-A addition and measured by FURA 2-AM dye based fluorescence assay
pKi: −log10 of the molar value.
Decide by pKi: equal to or exceeding 8 means yes, less means no.

Sample answers from the record:
> print(dat)
                      smiles.representation  assigned.category
1  CN(C(=O)/C=C/c1ccoc1)[C@@H]1CC[C@@]2(O)[C@H]3Cc4ccccc4[C@@]2(CCN3S(=O)(=O)c2ccccc2)C1                 no
2  COc1ccc2c(c1)[C@]13CCN(S(=O)(=O)c4ccccc4)[C@H](C2)[C@@H]1CC[C@H](N(C)C(=O)/C=C/c1ccoc1)C3                yes
3  COc1ccc2c(c1)[C@]13CCN(S(=O)(=O)c4ccccc4)[C@H](C2)C1=CC[C@H](N(C)C(=O)/C=C/c1ccoc1)C3                 no
4  COc1ccc2c(c1)[C@]13CCN(S(=O)(=O)c4ccccc4)[C@H](C2)[C@@H]1CC[C@@H](N(C)C(=O)/C=C/c1ccoc1)C3                yes

State whether the measured pKi reaches 8, counting equality as reaching it, for "CN(C(=O)/C=C/c1ccoc1)[C@@H]1CC[C@@]2(O)[C@H]3CC4=C(CCCC4)[C@@]2(CCN3S(=O)(=O)c2ccccc2)C1"
no

* * *

Biological target: Orexin/Hypocretin receptor type 1 (Homo sapiens)
Experiment: Antagonist activity at human OX1 receptor expressed in CHOK1 cells assessed as inhibition of orexin-A-induced calcium mobilization preincubated for 15 mins followed by orexin-A addition and measured by FURA 2-AM dye based fluorescence assay
Each entry below lists one item and its recorded Ki value.
# number only, unit nM dropped from output

Below are worked cases with known answers.
> print(dat)
                      smiles.representation                            assayed.system  numeric.value
1  COc1ccc2c(c1)[C@]13CCN(S(=O)(=O)c4ccccc4)[C@H](C2)C1=CC[C@@H](N(C)C(=O)/C=C/c1ccoc1)C3  Orexin/Hypocretin receptor type 1 (Homo sapiens)           5.89
2  CN(C(=O)/C=C/c1ccoc1)[C@H]1CC[C@@]2(O)[C@H]3CC4=C(CCCC4)[C@@]2(CCN3S(=O)(=O)c2ccccc2)C1  Orexin/Hypocretin receptor type 1 (Homo sapiens)           7.45

Please report the recorded Ki for "CN(C(=O)/C=C/c1ccoc1)[C@H]1CC[C@@]2(O)[C@H]3Cc4ccccc4[C@@]2(CCN3S(=O)(=O)c2ccccc2)C1" .
9.35
